Target: Ubiquitin-conjugating enzyme E2 N (Homo sapiens);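 note: Dose-response confirmation in a TR-FRET assay detecting UBC13-driven polyubiquitin chain formation, inhibition measured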
Sequence (P61088 whole entry): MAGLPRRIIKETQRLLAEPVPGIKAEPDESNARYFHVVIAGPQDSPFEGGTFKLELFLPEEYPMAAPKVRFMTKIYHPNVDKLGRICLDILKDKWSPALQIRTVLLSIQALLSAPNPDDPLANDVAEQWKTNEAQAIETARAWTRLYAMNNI
Type: functional
Calls of active or inactive are those of the source.
Outcome codes: active, inactive

- compound: "CCCCCCCSc1cc(OC)c(CCN(C)C)cc1OC"
  category_label: "inactive"
- compound: "CCOC(=O)c1cc(-c2ccc(OC)cc2F)nc2c1c(C)nn2CCC#N"
  category_label: "inactive"
- compound: "COc1cc2nc(N(CCCN(C)C)C(=O)c3ccc(S(=O)(=O)N4CCc5ccccc5C4)cc3)sc2cc1OC"
  category_label: "active"
- compound: "CC[C@H](C)Cc1cn([C@@H](CCCN=C(NC(=O)OC(C)(C)C)NC(=O)OC(C)(C)C)C(=O)NCCCCCCCCCCC(=O)N2CCN(C(=O)OC(C)(C)C)CC2)nn1"
  category_label: "inactive"
- compound: "CC(C)(C)C1CCC(CN2C(Nc3ccccc3)=NC[C@@H]2Cc2ccccc2)CC1 (stereo not given in full)"
  category_label: "inactive"
- compound: "CCOc1cccc2sc(N(CCCN(C)C)C(=O)c3ccc(S(=O)(=O)N4CCc5ccccc5C4)cc3)nc12"
  category_label: "active"
- compound: "CC(=O)c1ccc(OCCCC(=O)NNC(=O)c2ccccn2)cc1"
  category_label: "inactive"
- compound: "COc1ccc(C(=O)Nn2c(SCC(=O)c3ccc(Cl)cc3)nc3ccccc3c2=O)cc1"
  category_label: "inactive"
- compound: "C#CCOCCOCCOCCNc1nc(N2CCN(C(=O)CCCCCCCCCCNC(=O)Cn3cc(CCCCCN)nn3)CC2)nc(N2CCN(C(=O)CCCCCCCCCCNC(=O)[C@@H]([C@H](C)O)n3cc(C)nn3)CC2)n1"
  category_label: "active"
- compound: "CCNC(=O)c1ccccc1NC(=O)c1cccc(S(=O)(=O)N2CCC(C)CC2)c1"
  category_label: "inactive"

* * *

# EC50 listing for each entry below
Assay: Luminescence Cell-Based Dose Response HTS to Identify Inhibitors of 5'UTR Stem-Loop Driven Prion Protein mRNA Translation in H4 Neuroglioblastoma Cells. [Related pubchem assays: 1827 (Project Summary), 1813 (Primary HTS)]
Format: functional
The source made the active and inactive calls.
readout_label: EC50

- compound: "Cc1nc2ccccc2c(=O)n1/N=C/c1c(O)ccc2oc3c(c12)CCCC3"
  observed_result: "11.7 µM (active)"
- compound: "CCOC(=O)c1ccccc1NC(=O)CSc1ccc(-c2ccccn2)nn1"
  observed_result: "> 120 µM (not active)"
- compound: "N#CCN1C(=S)N=C(Nc2cccc(Cl)c2)C12CCCCC2"
  observed_result: "> 120 µM (not active)"
- compound: "COc1cc2c(cc1O)C[C@H]1NCCc3cc4c(c-2c31)OCO4"
  observed_result: "85.6 µM (active)"
- compound: "COc1ccc(C2c3ccc(O)cc3Oc3ncn4nc(-c5cccnc5)nc4c32)cc1OC (stereo unspecified)"
  observed_result: "52.3 µM (active)"
- compound: "CN(C)c1cc[n+](CC(=O)Nc2ccc(Oc3ccccc3)cc2)cc1"
  observed_result: "> 120 µM (not active)"

* * *

Target: DNA repair protein RAD52 homolog (Homo sapiens, UniProt P43351)
Sequence (P43351 whole entry): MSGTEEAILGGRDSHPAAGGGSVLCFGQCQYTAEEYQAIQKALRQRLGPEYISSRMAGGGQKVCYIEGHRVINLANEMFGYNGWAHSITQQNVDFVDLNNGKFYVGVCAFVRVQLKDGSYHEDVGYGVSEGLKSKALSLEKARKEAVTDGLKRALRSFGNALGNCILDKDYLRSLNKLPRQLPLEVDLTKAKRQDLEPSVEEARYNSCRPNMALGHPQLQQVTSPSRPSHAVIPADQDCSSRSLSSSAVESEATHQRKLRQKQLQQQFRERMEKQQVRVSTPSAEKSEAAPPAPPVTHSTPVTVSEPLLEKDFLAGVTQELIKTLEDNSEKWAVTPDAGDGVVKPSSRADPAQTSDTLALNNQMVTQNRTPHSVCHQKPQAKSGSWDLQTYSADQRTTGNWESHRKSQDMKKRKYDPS
Assay type: functional, biochemical
Active and inactive are the calls of the source.

- input_smiles: "Cc1cc2[nH]c3c(c[n+](C)c4ccccc34)c2cc1C"
  tested_system: "DNA repair protein RAD52 homolog (Homo sapiens, UniProt P43351)"
  AC50: "0.372 µM (active)"
- input_smiles: "CN(C)CCCNc1cc(-c2ccccc2)nc2cc(-c3cccc(F)c3)nn12"
  tested_system: "DNA repair protein RAD52 homolog (Homo sapiens, UniProt P43351)"
  AC50: "15.1 µM (active)"
- input_smiles: "CCN(CC)CCCN(Cc1cc2cc3c(cc2[nH]c1=O)OCO3)C(=S)NCCCN(C)C"
  tested_system: "DNA repair protein RAD52 homolog (Homo sapiens, UniProt P43351)"
  AC50: "5.22 µM (active)"
- input_smiles: "CCOc1cccc2sc(N(CCCN(C)C)C(=O)c3ccc(S(=O)(=O)N4CCc5ccccc5C4)cc3)nc12"
  tested_system: "DNA repair protein RAD52 homolog (Homo sapiens, UniProt P43351)"
  AC50: "21.2 µM (active)"
- input_smiles: "N=C(N)Nc1nc(-c2ccccc2)c2ccccc2n1"
  tested_system: "DNA repair protein RAD52 homolog (Homo sapiens, UniProt P43351)"
  AC50: "16.6 µM (active)"
